composite z-score listing for selected molecules.
- target: Concanavalin-A (Canavalia ensiformis) (UniProt P02866)
- Sequence (P02866 whole entry, looked up): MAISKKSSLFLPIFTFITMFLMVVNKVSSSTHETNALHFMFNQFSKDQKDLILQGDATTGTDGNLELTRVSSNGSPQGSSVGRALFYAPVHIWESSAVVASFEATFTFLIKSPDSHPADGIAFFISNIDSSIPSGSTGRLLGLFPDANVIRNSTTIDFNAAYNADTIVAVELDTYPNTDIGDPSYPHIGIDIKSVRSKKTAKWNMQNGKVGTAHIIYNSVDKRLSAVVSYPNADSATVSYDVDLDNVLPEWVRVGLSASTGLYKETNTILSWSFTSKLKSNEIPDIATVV
- assay.text: ConA small-molecule binders, primary screen, artefact control for SMM control protein annotation, biochemical, small-molecule microarray, Alexa647 label, 635 nm (AID 1127);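 further: z combines 667 nm emission intensity with signal-to-noise across three replicate slides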
- protocol.conditions: ConA-A647 binding fluorescence, higher = more signal
Give only the figure.

Data request: Fill blank: measured composite z-score of the molecule Cc1ccc(S(=O)(=O)NC(CCc2ccccc2)CC(=O)C(C)(C)C)cc1 (centres undefined) is ____.
Data returned: 0.87

Data request: Recorded composite z-score for CO[C@H]1COC(=O)[C@H](C)NC(=O)[C@@H](C)COC(=O)[C@H]2CCCN2C(=O)CC=C[C@H]1C , please?
Data returned: -0.229

Data request: If you can, please state the reported composite z-score value of O=C1C[C@@H](O)[C@@H](O)[C@@H]2[C@@H]3C(=O)N(c4cccc(Oc5ccccc5)c4)C(=O)[C@@H]3CC[C@H]12 .
Data returned: 0.505

Data request: GET /values?readout=composite z-score&item= C=CC[C@@H]1C=C[C@H](ON=C(C)CCC(=O)OC[C@H]2O[C@H](C#Cc3ccccc3)C=C[C@@H]2Oc2ccc(C)cc2)[C@@H](CO)O1
Data returned: 1.13
